# Tested on: CCRF-CEM leukemia
# protocol-details: NCI tumour cell line growth inhibition, 48 h; in the data active = GI50 below about 0.43 µM; inactive = the rest
// one of active, inactive, no free text

molecule	classification
CN(C)c1ccc(N=Nc2c([O-])ccc3ccccc23)cc1.[C-]#[O+].[C-]#[O+].[Ir]	inactive
CC[CH2][Pb]([CH2]CC)([CH2]CC)[NH]S(=O)(=O)c1ccc(C)cc1	active
Cn1cc(-c2ccc3c(c2)CCN3C(=O)Cc2cccc(C(F)(F)F)c2)c2c(N)ncnc21	inactive
C[C@H](CS(C)(=O)=O)Nc1ncc2cc(Oc3ccc(F)cc3F)c(=O)n(C)c2n1	inactive
CC1=CC(=O)C(C(C)=Nc2ccccc2Cl)C(=O)O1 (stereo unspecified)	inactive

Next up:
Exam item: Entry O=C(NN1C(=O)CSC1c1ccc(Cl)cc1)c1[nH]c2ccc(F)cc2c1-c1ccccc1 (stereo unspecified) : call = ?
Marked response: inactive

====

Please provide measured TGI for the entries that follow.
# System: HCT-15 colon
# protocol-details: NCI tumour cell line growth inhibition, 48 h

Some solved cases for reference:
compound	measured-property	result
C=C(N=[N+]=[N-])c1cn(C2CC(O)C(CO)O2)c(=O)[nH]c1=O (stereo not drawn)	TGI	> 100 µM
O=C1CC(CC(OCc2ccccc2)C(COCc2ccccc2)OCc2ccccc2)CC(=O)N1 (stereo not drawn)	TGI	> 100 µM
O=C1CCc2cc3c(cc21)CC1(Cc2ccccc2C1)C3	TGI	> 100 µM
C/C=C(/CCCCNCCCC)[Si](C)(C)C	TGI	30 µM
O=C(Cc1ccccc1)N/N=C(\C1=Nc2ccc([N+](=O)[O-])cc2NC1O)C(O)c1ccc([N+](=O)[O-])cc1 (stereo not drawn)	TGI	> 100 µM

Please look at the items below and tell me TGI for each one, in order.
1. N#Cc1ccccc1NC(=O)c1ccccc1
2. O=C(Nc1ccc2c(c1)oc(=O)c1ccccc12)C(Cl)Cl
3. COc1ccc(/C=C(\NC(=O)c2ccccc2)C(=O)NN(C)c2ccnc3cc(Cl)ccc23)cc1OC

Marked response:
["> 100 µM", "> 100 µM", "55.4 µM"]

====

# Tested on: SF-268 CNS
# protocol-details: NCI tumour cell line growth inhibition, 48 h
Please provide measured TGI for the entries that follow.

compound	TGI
CCO[C@@H]1C2C=CC(C2)[C@H]1[N+](=O)[O-] (stereo partly specified)	> 100 µM
Cc1ccc(NC(=O)CC(=O)n2nc(C)c(N=Nc3ccc(S(=O)(=O)CCOS(=O)(=O)O)cc3)c2C)cc1	> 100 µM
O=C1C(N=Nc2ccc(-c3nc4ccccc4o3)cc2)NC(=S)N1c1ccccc1 (stereo unspecified)	> 100 µM

Please look at the items below and tell me TGI for each one, in order.
1. O=C(CC(C(=O)c1cccs1)c1ccsc1)c1ccsc1 (stereo unspecified)
2. c1ccc2c(c1)CCN2CCc1c[nH]c2ccccc12
3. Nc1ccc(S(=O)(=O)c2ccc(NC(=O)c3cccnc3)cc2)cc1
4. COc1ccccc1-c1c(C)nn2c(NCc3ccccn3)cc(C)nc12
5. N/N=C(\Cc1ccccc1)NN=C(N)N
6. Cc1cccc(Nc2cn(CCOc3ccccc3)c(=O)n(CCOc3ccccc3)c2=O)c1
7. CC(C)[C@@H](COC(C)(C)C)N=CN1CCc2c([nH]c3ccccc23)C1
8. CN(N)/N=N/c1nc[nH]c1C(N)=O

Marked response:
["> 100 µM", "> 10 µM", "> 100 µM", "> 50 µM", "> 100 µM", "> 100 µM", "> 100 µM", "> 100 µM"]

====

# Tested on: NCI-H226 lung
# protocol-details: NCI tumour cell line growth inhibition, 48 h; in the data active means GI50 below about 0.43 µM; inactive means the rest
// one of active, inactive, no free text

molecule	classification
O=c1oc2ccc(Cl)cc2c(=O)n1-c1ccc(I)cc1F	inactive
CCc1c2c(nc3cccc(N)c13)-c1cc3c(c(=O)n1C2)COC(=O)[C@]3(O)CC	active
Fc1ccc(Nc2nccc(-c3c(-c4ccc(C(F)(F)F)cc4)nn4ncccc34)n2)cc1F	inactive
Clc1ccc2nc(Oc3ccccc3)cnc2c1	inactive
COc1ccc(-c2ccc(/C=N/n3c(COc4ccc(Cl)cc4)n[nH]c3=S)o2)c([N+](=O)[O-])c1	inactive

Exam item: Entry Nc1nc(OCc2ccccc2)nc2[nH]ncc12 : call = ?
Marked response: inactive

Exam item: Entry Cc1ccc2c(c1)ncn2-c1ncnc2c1CC(C)c1ccccc1N2C (stereo not drawn) : call = ?
Marked response: inactive

Exam item: Entry C[C@H](CS(C)(=O)=O)Nc1ncc2cc(Oc3ccc(F)cc3F)c(=O)n(C)c2n1 : call = ?
Marked response: inactive

====

# System: NCI-H460 lung
// one of true (active), false (inactive), no free text

Take a look at these entries with their results.
molecule	classification
Clc1ccc2nc(Oc3ccccc3)cnc2c1	false
C/C1=C\CC[C@@](C)(O)[C@@H]2CC3[C@@H](OC(=O)C34CC4)[C@@H](O2)[C@H](C)CCC1 (stereo not given in full)	false
Cn1cc(-c2ccc(CNc3cc(-c4cnc5cc(OCCCN6CCCC6)ccn45)ncn3)cc2)cn1	false
CCCCCCCCCCCCC(=O)[O-].CCCCCCCCCCCCC(=O)[O-].CCCCCCCCCCCCC(=O)[O-].CCCCCCCCCCCCC(=O)[O-].[Mo+2].[Mo+2]	false
Cc1cc(N2CCCC2)nc(N(CCCNc2ccnc3cc(Cl)ccc23)Cc2ccc3c(c2)OCO3)n1	false
Nc1nc(Nc2cccc(F)c2)nc2ccccc12	false

Next up:
Exam item: Entry N#CC1C(N)=NNC12Nc1ccccc1N2 (stereo not given) : call = ?
Marked response: false

====

# Tested on: KM12 colon
# protocol-details: NCI tumour cell line growth inhibition, 48 h
measured-property: TGI

Some solved cases for reference:
compound	measured-property	result
CN(C)c1ccc(/C=C/c2cc[n+](C)c3ccccc23)cc1	TGI	10.7 µM
CCCCCCCCCCCCC(=O)[O-].CCCCCCCCCCCCC(=O)[O-].CCCCCCCCCCCCC(=O)[O-].CCCCCCCCCCCCC(=O)[O-].[Mo+2].[Mo+2]	TGI	29.1 µM
CN(N)/N=N/c1nc[nH]c1C(N)=O	TGI	> 82.4 µM
Cc1cc(C)c(C)c(-n2[nH]c(=O)n(C)c2=O)c1C	TGI	> 100 µM
COc1ccc(C2NC3=C(CCCC3)C3(C#N)C(=O)N=C(N)C23C#N)cc1 (stereo unspecified)	TGI	> 100 µM

Exam item: Reported TGI for O=C(O)CCC1CCc2cccc3occ1c23 (stereo unspecified) : what is it?
Marked response: > 100 µM

====

Please provide measured GI50 for the entries that follow.
# Tested on: HCC-2998 colon
# protocol-details: NCI tumour cell line growth inhibition, 48 h

compound	measured-property	result
C/C1=C\CC[C@@](C)(O)[C@@H]2CC3[C@@H](OC(=O)C34CC4)[C@@H](O2)[C@H](C)CCC1 (some centres undefined)	GI50	14.7 µM
CCOC(=O)c1cnn(-c2ccnc3c(C(F)(F)F)cccc23)c1N	GI50	> 100 µM
CCCCC[C@H]1C/C=C2/C(=O)C(Cl)=C[C@@H]2C/C=C\CCCC(=O)O[C@@H](CCCCC)C/C=C2/C(=O)C(Cl)=C[C@@H]2C/C=C\CCCC(=O)O1	GI50	0.349 µM

Exam item: Reported GI50 for COc1ccc(/C=C2\CCCC3=C2NC(C)=NC3c2ccc(OC)c(OC)c2)cc1OC (centres undefined) : what is it?
Marked response: > 100 µM

====

# Tested on: NCI/ADR-RES ovarian
# protocol-details: NCI tumour cell line growth inhibition, 48 h
measured-property: TGI

Some solved cases for reference:
molecule	test-system	TGI
COc1cc2cc(Oc3ccc(NC(=O)c4ccc(Cl)c(C(F)(F)F)c4)cc3)c(C)nc2cc1OC	NCI/ADR-RES ovarian	> 100 µM
O=C(O)C/C(=C\c1ccccc1)C(=O)O	NCI/ADR-RES ovarian	> 100 µM
N#CC1C(N)=NNC12Nc1ccccc1N2 (stereo unspecified)	NCI/ADR-RES ovarian	74.5 µM
CCOC(=O)c1cnn(-c2ccnc3c(C(F)(F)F)cccc23)c1N	NCI/ADR-RES ovarian	> 100 µM
CCN1C(=O)N(CC)C2C1NN=c1s/c(=C3\C(=O)N(C)c4ccccc43)c(=O)n12 (stereo unspecified)	NCI/ADR-RES ovarian	38.7 µM

Please look at the items below and tell me TGI for each one, in order.
1. COC1OC(COC(=O)NCCCCC(=O)C(F)(F)F)C(O)C(O)C1O (stereo unspecified)
2. O=C1CCC[C@H]2O[C@@H](COCc3ccccc3)C[C@@H]12
3. C1=NCCOCCN=Cc2ccccc2OCc2cccc(n2)COc2ccccc21
4. C[C@H](CSC(=O)c1ccccc1)C(=O)N1c2ccccc2C[C@H]1C(=O)O
5. COc1cc2c(c(OC)c1OC)C(=O)[C@H]1OC(=O)N[C@@H]21
6. CN1C(=O)C(O)CC1c1cccc(F)c1 (stereo unspecified)

Marked response:
["> 100 µM", "> 100 µM", "13.4 µM", "> 100 µM", "> 100 µM", "> 100 µM"]

Please look at the items below and tell me TGI for each one, in order.
1. CN1CN(c2ccccc2)C2(CCN(CCCC(=O)c3cccs3)CC2)C1=O
2. NCCCc1ccc2oc3ccccc3c2c1
3. COc1cnc2c(c1)C(=O)c1c-2n(CCCN2CCCC2)c(=O)c2cc(Cl)ccc12
4. CC(=O)Nc1ccc(N2C(=O)/C(=C\c3cccc(Oc4ccccc4)c3)SC2c2ccccc2)cc1 (stereo unspecified)

Marked response:
1. > 100 µM
2. 46.3 µM
3. 8.86 µM
4. > 100 µM

Please look at the items below and tell me TGI for each one, in order.
1. CN(C)c1ccc(C(N)=O)cn1
2. O=C1CCc2cc3c(cc21)CC1(Cc2ccccc2C1)C3
3. COc1ccc(NCC(=O)Nn2c(C)nc3ccc(S(=O)(=O)Nc4ccc(OC)cc4)cc3c2=O)cc1
4. O=C(Nc1ccc2c(c1)oc(=O)c1ccccc12)C(Cl)Cl

Marked response:
1: > 100 µM; 2: > 60.1 µM; 3: > 100 µM; 4: > 100 µM

Please look at the items below and tell me TGI for each one, in order.
1. CCc1cc2c(cc1CCCC(=O)O)CC1(Cc3ccc(C(=O)O)cc3C1)C2 (stereo unspecified)
2. Cc1cc(C)c(C)c(-n2[nH]c(=O)n(C)c2=O)c1C
3. S=c1ssc(Sc2ccccn2)c1Cl
4. O=C1N[C@@H]([C@H](CCCCCO)OC(=O)c2ccccc2)CO1
5. CCOC(CCCN1CCC2(CC1)C(=O)N(C)CN2c1ccccc1)(OCC)c1ccc(F)cc1

Marked response:
> 100 µM
> 100 µM
26.8 µM
> 100 µM
33.5 µM
